system: SNB-19; assay: NCI tumour cell line growth inhibition, 48 h
The source made the active and inactive calls. Cut-off read from the data, not from the text of the source: active = GI50 up to about 1.1 µM and inactive = higher.
Please reply with one of these outcomes: active, inactive

O=c1cc(-c2ccccc2)oc2ccc(-c3ccc4oc(-c5ccccc5)cc(=O)c4c3)cc12 : inactive
COc1cc2c(c(OC)c1O)-c1ccc(OC)c(=O)cc1[C@@H](NC(=O)C(F)(F)F)CC2 : active
COc1ccc(CC(CO)NC(=O)OCc2ccccc2)cc1Oc1ccc(CC(CO)NC(=O)OCc2ccccc2)cc1 (stereo unspecified) : inactive
COC(=O)CSSCc1ccc([N+](=O)[O-])cc1 : inactive
COc1cc(C2c3cc4c(cc3OC(N3CCOCC3)C2C)OCO4)cc(OC)c1OC(C)=O (stereo unspecified) : inactive
COc1ccc(N2C(=O)C3ON(Cc4ccc(CC(N)=O)cc4)C(c4c5ccccc5c(C)c5ccccc45)C3C2=O)cc1 (stereo unspecified) : inactive
COC1=CC(=O)c2c(c(COC(C)=O)cn2C)C1=O : active
COc1cc(C2=N/C(=C/c3cccs3)C(=O)O2)cc(OC)c1OC : inactive

Query: recorded result category for `N#CCCN(C(=O)Nc1ccc(NC(=O)N(CCC#N)c2ccccc2)cc1)c1ccccc1` in this test inactive

Query: recorded result category for `CC(C)OP(=O)(OC(C)C)/C(=N/Nc1ccc([N+](=O)[O-])cc1)NNC(=O)c1ccccc1` in this test inactive

Query: recorded result category for Cc1cn(CCCCCCOC(=O)NC(CCCNC(N)=O)C(=O)O)c(=O)[nH]c1=O (stereo unspecified) in this test inactive

Query: recorded result category for `COCCN(CCNC(=O)c1cccc2c(N)c3cccc(C)c3nc12)CCOC` in this test inactive

Query: recorded result category for CCOC(=O)C(C)OC(=O)c1ccc(C)cc1 (stereo unspecified) in this test inactive

Query: recorded result category for `CC(C)(C)c1cc(C=C(C#N)C#N)cc(C(C)(C)C)c1O` in this test active

Query: recorded result category for `COC(=O)[C@]1(CCC(C)=O)C(=O)C=CN([C@H](C)c2ccccc2)[C@@H]1Cc1ccc(OC)c(OCc2ccccc2)c1I` in this test inactive

Query: recorded result category for `O=C(c1c(F)c(F)c(F)c(F)c1F)N1CCN(C(=O)c2c(F)c(F)c(F)c(F)c2F)C1=S` in this test inactive

---

For each of the compounds below, state its GI50.
system: U-251; assay: NCI tumour cell line growth inhibition, 48 h
Calls of active or inactive are those of the source. No stated cut-off is given here; in the data, active = GI50 up to about 1.1 µM and inactive = higher.

Previously resolved entries follow.
COC(=O)c1ccc2[nH]c3c(c2c1)CC(=O)Nc1ccccc1-3 : 6.68 µM (inactive)
Oc1ccc2ccccc2c1C(c1ccc(Cl)cc1)c1c(O)ccc2ccccc12 : 3.43 µM (inactive)
CNC(=S)/C(C#N)=C(\N)N1CCCC1 : > 100 µM (inactive)
COc1ccc2c(c1)CCN1CCCc3ccccc3C21 (stereo not drawn) : 37.2 µM (inactive)
C=CCOC(=O)Cn1cc(C)c(=O)[nH]c1=O : > 100 µM (inactive)
O=C(CNc1ccc(Cl)cc1Cl)Nn1c(-c2ccccc2)nc2ccccc2c1=O : > 10 µM (inactive)

Your task in this section: give GI50 for each listed record.
1. CSc1ccc(/C=C2\CNC/C(=C\c3ccc(SC)cc3)C2=O)cc1
2. COc1ccc2c(=O)c(O)c(-c3ccc(OC)c(OC)c3)oc2c1

16.9 µM (inactive)
3.52 µM (inactive)

Your task in this section: give GI50 for each listed record.
1. CSC(SC)=C(C#N)C(=O)Nc1cccc(Cl)c1
2. CCC1(C)NC(c2cnccn2)=NN1c1ccc(Cl)cc1 (stereo not drawn)
3. Cc1nc2ccc(Cl)cc2c2c1CCN2c1ccc(F)cc1
4. Cc1ccn2c(=O)cc(CN3CCOCC3)nc2c1

1: 76.7 µM (inactive); 2: 52.8 µM (inactive); 3: 45.8 µM (inactive); 4: > 100 µM (inactive)
